Biological target: BaF3 cell lines stably transfected with kinase EGFR L858R/T790M (Homo sapiens, UniProt P00533, T790M/L858R, cells depend on it)
Sequence (P00533 whole entry T790M/L858R): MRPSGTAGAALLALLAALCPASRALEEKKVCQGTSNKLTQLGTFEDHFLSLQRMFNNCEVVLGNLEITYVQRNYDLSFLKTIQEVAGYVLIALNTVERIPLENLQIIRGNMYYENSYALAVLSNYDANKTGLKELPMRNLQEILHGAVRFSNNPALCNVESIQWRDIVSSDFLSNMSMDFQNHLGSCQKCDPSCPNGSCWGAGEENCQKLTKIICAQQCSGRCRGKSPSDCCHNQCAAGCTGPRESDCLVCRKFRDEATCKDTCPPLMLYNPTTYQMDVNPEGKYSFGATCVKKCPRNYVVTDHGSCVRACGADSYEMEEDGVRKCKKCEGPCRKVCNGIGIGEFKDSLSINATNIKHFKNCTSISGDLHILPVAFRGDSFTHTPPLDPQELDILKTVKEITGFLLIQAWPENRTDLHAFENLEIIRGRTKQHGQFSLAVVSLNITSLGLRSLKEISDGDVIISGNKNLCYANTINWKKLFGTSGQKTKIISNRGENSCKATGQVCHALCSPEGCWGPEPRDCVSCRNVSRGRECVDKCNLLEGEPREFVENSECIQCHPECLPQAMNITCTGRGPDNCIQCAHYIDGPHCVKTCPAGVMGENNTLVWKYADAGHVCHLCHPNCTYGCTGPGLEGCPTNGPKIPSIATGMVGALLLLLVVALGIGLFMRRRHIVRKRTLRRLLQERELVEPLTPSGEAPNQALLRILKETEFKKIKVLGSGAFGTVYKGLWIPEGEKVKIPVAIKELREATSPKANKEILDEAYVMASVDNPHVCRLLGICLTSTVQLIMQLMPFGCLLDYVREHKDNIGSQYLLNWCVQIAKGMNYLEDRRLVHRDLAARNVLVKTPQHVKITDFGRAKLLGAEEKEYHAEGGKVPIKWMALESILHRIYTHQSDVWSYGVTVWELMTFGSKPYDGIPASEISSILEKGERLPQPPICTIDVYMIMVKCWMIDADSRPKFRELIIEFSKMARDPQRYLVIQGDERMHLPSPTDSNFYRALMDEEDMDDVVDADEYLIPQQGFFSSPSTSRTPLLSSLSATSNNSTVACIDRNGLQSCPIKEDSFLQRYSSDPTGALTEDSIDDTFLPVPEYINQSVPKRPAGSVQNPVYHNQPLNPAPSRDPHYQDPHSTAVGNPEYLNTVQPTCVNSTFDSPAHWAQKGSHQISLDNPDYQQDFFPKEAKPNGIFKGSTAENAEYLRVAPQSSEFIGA
Assay: Growth inhibition of BaF3 cell line stably transfected with kinase EGFR L858R/T790M (MTS)
Type: cell-based
Conditions: 48 h, read-out: growth inhibitory activity IC50, L858R/T790M
Value kind: GI50

Past entries and their recorded results:
Molecule | GI50
C=Cc1cnc(Nc2ccc(N3CCC(N4CCN(C)CC4)CC3)c(CC)c2)nc1Nc1ccc2nccnc2c1S(=O)(=O)NC | ≤ 50 nM
C=Cc1cnc(Nc2cc(CC)c(N3CCC(N4CCN(C)CC4)CC3)nc2OC)nc1Nc1ccc2nccnc2c1N(C)S(C)(=O)=O | ≤ 50 nM
C=Cc1cnc(Nc2cc(CC)c(N3CCC(N4CCN(C)CC4)CC3)cc2OC)nc1Nc1ccc2nccnc2c1N(C)S(C)(=O)=O [II-53] | 50 to 500 nM
CCc1cc(Nc2ncc(C=C(C)C)c(Nc3ccc4nccnc4c3N(C)S(C)(=O)=O)n2)c(OC)cc1N1CCC(N2CCN(C)CC2)CC1 | 500 to 2500 nM

# input Please report the recorded GI50 for `C=Cc1cnc(Nc2cc(C(C)C)c(N3CCC(N4CCN(C)CC4)CC3)cc2OC)nc1Nc1ccc2nccnc2c1S(=O)(=O)NC` .
# output 50 to 500 nM

# input Please report the recorded GI50 for `C=Cc1cnc(Nc2cc(C)n(C)n2)nc1Nc1ccc2nccnc2c1N(C)S(C)(=O)=O` .
# output 500 to 2500 nM

# input Please report the recorded GI50 for `C=Cc1cnc(Nc2cc(CC)c(N3CCC(N4CCN(C)CC4)CC3)nc2OC)nc1Nc1ccc2nccnc2c1S(C)(=O)=O` .
# output 50 to 500 nM

# input Please report the recorded GI50 for `C=Cc1cnc(Nc2cc3c(cc2OC)CCN(C)C3)nc1Nc1ccc2nccnc2c1N(C)S(C)(=O)=O` .
# output 500 to 2500 nM

# input Please report the recorded GI50 for `C=Cc1cnc(Nc2ccn(C(C)C)n2)nc1Nc1ccc2nccnc2c1N(C)S(C)(=O)=O` .
# output 500 to 2500 nM
